Biological target: T1, Fc-fused truncated mutant of KAAG1 spanning amino acids 1-35 (human)
T1 construct: also called truncated mutant of KAAG1 1-35; first 35 amino acids of KAAG1; not shown: human Fc domain encoded by expression plasmid pYD5; vector-encoded residues between the Fc and the BamHI cloning site of pYD5
T1 chain: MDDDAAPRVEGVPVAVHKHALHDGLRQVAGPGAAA
Experiment: ELISA
Listing of recorded OD450 by entry.
RECORDED_ENDPOINT: OD450

INSERT INTO results (binder, recorded_value) VALUES
  ('Fab of well D1 (Omniclonal AL0003Z1 plate) (Fab, V domains shown) VH: EVQLQESGPDLVKPSQSLSLTCTVTGFSITSGYGWHWIRQFPGDKLEWMGYISFNGDYNYNPSLKSRISITRDTSKNQFFLQLSSVTTEDTATYYCASSYDGLFAYWGQGTLVTVSA VL: DIKMTQSPSSMYASLGERVTITCKASQDIHTYLNWFQQKPGKSPETLIYRANRLVDGVPSRFSGSGSGQDYSLTISSLEYEDMGIYYCLQYDEFPLTFGAGTKLELK', 1.21),
  ('3C4 mouse anti-KAAG1 Fab (Fab, V domains shown, Recombinant mouse Fab prepared from E. coli; also called 3C4 Fab; well C4) VH: EVQLQESGPDLVKPSQSLSLTCTVTGFSITSGYGWHWIRQFPGNKLEWMGYINYDGHNDYNPSLKSRISITQDTSKNQFFLQLNSVTTEDTATYYCASSYDGLFAYWGQGTLVTVSA VL: DIVMSQSPSSMYASLGERVTITCKASQDIHNFLNWFQQKPGKSPKTLIFRANRLVDGVPSRFSGSGSGQDYSLTISSLEFEDLGIYSCLQYDEIPLTFGAGTKLELR', 1.93),
  ('Fab of well C2 (Omniclonal AL0003Z1 plate) (Fab, V domains shown) VH: DVQLQESGPDLVKPSQSLSLTCTVTGFSITSGYGWHWIRQFPGNKLEWMGYISFNGDSNYNPSLKSRISITRDTSKNQFFLQLNSVTSEDTATYYCASSYDGLFAYWGQGPLVTVSA VL: DIQMTQSPSSMYASLGERVTLTCKASQDIHNYLNWFQQKPGKSPKTLIHRANRLVAGVPSRFSGSGSGQDYSLTISSLEYEDLGIYYCLQYDAFPLTFGAGTKLELK', 1.97),
  ('A9 (Fab, V domains shown, also called Fab of well A9) VH: QVQVQQPGAELVRPGASVTLSCKASGYIFTDYEVHWVRQRPVHGLEWIGVIDPETGDTAYNQKFKGKATLTADKSSSTAYMELSSLTAEDSAVYYCIGYADYWGQGTTLTVSS VL: DIVMTQSPSSLAMSLGQKVTMSCKSSQSLLNSNNQLNYLAWYQQKPGQSPKLLVYFASTRKSGVPDRFIGSGSGTDFTLTITSVQAEDLADYFCQQHFNTPLTFGAGTKLELK', 0.1);
